# targetOrTestSystem: human PD-L1 (Homo sapiens, UniProt Q9NZQ7)
# Construct: biotin (biotinylated); purchased R&D Systems (Minneapolis, Minnesota)
# experimentSummary: Bio-layer interferometry binding to biotinylated PD-L1
# experimentalParameters: read-out: dissociation constant KD
valueKind: Kd (µM)
Report the figure in µM without appending any unit label.

Query: Kd for H-GTRLKPLIICVQWPGL-OH [PD-L1ip3] ?
Result: 33
